Molecular target: T1, human IL-23 (form not stated) (human, UniProt P29460 23-328)
T1 sequence 1: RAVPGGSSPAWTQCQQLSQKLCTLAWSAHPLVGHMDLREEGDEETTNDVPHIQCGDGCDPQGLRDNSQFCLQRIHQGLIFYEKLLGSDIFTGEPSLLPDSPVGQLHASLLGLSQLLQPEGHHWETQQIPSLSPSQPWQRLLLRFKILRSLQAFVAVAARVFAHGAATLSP
T1 sequence 2: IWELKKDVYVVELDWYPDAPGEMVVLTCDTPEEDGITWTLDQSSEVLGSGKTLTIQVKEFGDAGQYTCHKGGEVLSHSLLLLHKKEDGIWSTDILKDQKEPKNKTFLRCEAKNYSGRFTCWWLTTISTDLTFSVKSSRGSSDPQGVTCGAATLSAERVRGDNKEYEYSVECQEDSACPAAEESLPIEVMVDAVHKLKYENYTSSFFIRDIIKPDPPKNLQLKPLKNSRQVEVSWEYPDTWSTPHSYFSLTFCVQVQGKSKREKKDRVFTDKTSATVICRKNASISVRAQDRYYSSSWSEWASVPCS
Assay: cell-based or functional assay
readoutLabel: Splenocyte assay IC50 (IL-17 production by mouse splenocytes) (nM)
Form entry: value (nM) — number only.

Q. Give the measured Splenocyte assay IC50 (IL-17 production by mouse splenocytes) for mouse anti-human IL-23p19 antibody 17G8 (antibody, V domains shown) VH: QAQLQQSGSELARPGASVKLSCKASGYTFTSYGIKWVKQRTGQGLEWIGEIFPRSGQTIYNENFKGKATLTADKSSSTAYMELRSLTSEDSAVYFCAANWDLDYWGQGTILTVSS VL: DIMMTQSPATLSVTPGDRVSLSCRASQSISDYLHWYRQKSHESPRLLIKYASQSISGIPSRFSGSGSGSDFTLSINSVEPEDVGIYYCQNGHSFPYTFGGGTKLEIKR
A. 0.018

Q. Give the measured Splenocyte assay IC50 (IL-17 production by mouse splenocytes) for mouse anti-human IL-23p19 antibody 20H7 (antibody, V domains shown) VH: QAQLQQSGGELARPGASVKLSCKASGYTFTNYGIKWVKQRTGQGLEWIGEIFPRSGQTIYNEKFKGKATLTADKSSSTAYMELRSLTFEDSAVYFCAANWDLDYWGQGTILTVSS VL: DIMMTQSPATLSVTPGDRVSLSCRASQSISDYLHWYRQKSHESPRLLIKYASQSISGIPSRFSGSGSGSDFTLSINSVEPEDVGVYFCQNGHSFPYTFGGGTKLEIKR
A. 0.033

As a next step, examine the binder that follows.
Q. Give the measured Splenocyte assay IC50 (IL-17 production by mouse splenocytes) for mouse anti-human IL-23p19 antibody 15G2 (antibody, V domains shown) VH: EVQLQQSGPELVKPGASVKMSCKASGYTFTNYLMHWVKQKPGQGLEWIGYINPYNDGTNYNEKFKGKATLTSDKSSSTAYMELSSLTSEDSAIYFCTSNWDLDYWGQGTTLTVSS VL: DIVMTQSPATLSVTPGDRVSLSCRASQSISDYLHWYQQKSHESPRLLIKYASQSISGIPSRFSGSGSGSDFILNINSVEPEDVGVYYCQNGHSFPYTFGGGTKLEIKR
A. 0.095
